- assay.info: chemical genetic growth profiling, strain panel (AID 1159580);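 note: tested at 20 µM; growth read once vehicle control cultures reached saturation at 30 °C; 1 = growth at the plate median or of vehicle wells; lower values mean less growth of the strain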
- cond: S. cerevisiae deletion strains, growth OD, locus YBR229C, strain ROT2, stronger effect = lower value
The campaign covered roughly 5,500 compounds. About 2,000 (36%) were called active. Not shown: some 18% with an inconclusive outcome. This is one part of the list.
quantity.name: normalized growth

Give its normalized growth value. Item: Nc1ccccc1SCC(=O)Nc1c(F)cccc1F
0.998 (inactive)

Give its normalized growth value. Item: O=C(O)/C=C/C=C/c1ccccc1
0.983 (inactive)

Give its normalized growth value. Item: COc1ccc(CCNC(=S)Nc2cccc(C(F)(F)F)c2)cc1OC
0.995 (inactive)

Give its normalized growth value. Item: O=C(Nc1ccccc1F)C(Cl)Cl
0.989 (inactive)

Give its normalized growth value. Item: Cc1[nH]ncc1-c1ccccc1
0.978 (inactive)

Give its normalized growth value. Item: COc1cc2c(c(OC)c1OC)-c1ccc(OC)c(=O)cc1[C@@H](NC(C)=O)CC2
1.02 (inactive)

Give its normalized growth value. Item: COC(=O)[C@]1(C)CC[C@]2(C)CC[C@]3(C)C4=CCc5c(cc(O)c(O)c5C)[C@]4(C)CC[C@@]3(C)C2C1 (stereo partly specified)
0.989 (inactive)

Give its normalized growth value. Item: O=[N+]([O-])/C=C/c1ccsc1
0.0538 (active)

Others:
Give its normalized growth value. Item: CC(=O)OCC1(C)CCC2(C)CCC3(C)C4=CCc5c(cc(OC(C)=O)c(OC(C)=O)c5C)C4(C)CCC3(C)C2C1 (stereo unspecified)
1.02 (inactive)

Give its normalized growth value. Item: COc1cc2c(c(OC)c1OC)-c1ccc(O)c(=O)cc1[C@@H](NC(C)=O)CC2
0.962 (inactive)

Give its normalized growth value. Item: O=C(O)CF
0.987 (inactive)
